test system: Staphylococcus aureus; details: Concentration 32 ug.mL-1;; ASSAY_TEST Inhibition of Bacterial Growth; detection method Absorption (OD600); MEDIA CAMHB; plate type 384well; NBS; CORNING #3640; time 18 hr
Description: Antibacterial activity against Staphylococcus aureus MRSA ATCC 43300 (CO-ADD:GP_020); MIC in CAMBH media, using NBS plates, by OD(600)
Measured potencies and affinities stand elsewhere.
Readout: Inhibition (%)
One number for each entry, in %.

INSERT INTO results (cpd_smiles, readout, output_unit, assay_value) VALUES
  ('CCOc1ccc(-n2ccn3c(=O)n(CC(=O)Nc4ccc(Br)cc4)nc3c2=O)cc1', 'Inhibition', '%', -12.91);

Batch request: Inhibition for each of the following compounds.
1. CCc1ccccc1Sc1nccn2c(=O)n(CC(=O)Nc3cccc(Br)c3)nc12
2. CCCCn1c(=O)c2sccc2n2c(=O)n(CC(=O)c3ccc(OC)c(OC)c3)nc12
3. COc1cc(NC(=O)CSc2nnc3c(=O)n(-c4ccc(C)c(C)c4)ccn23)cc(OC)c1
4. COc1cccc(-c2noc(Cn3nc4ccc(-c5ccc(C)c(C)c5)nn4c3=O)n2)c1OC

Reply:
[8.83, 13.6, 3.54, 6.16]

* * *

tested on: Escherichia coli; conditions: Concentration 32 ug.mL-1;; ASSAY_TEST Inhibition of Bacterial Growth; detection method Absorption (OD600); MEDIA CAMHB; plate type 384well; NBS; CORNING #3640; time 18 hr
Description: Antibacterial activity against Escherichia coli ATCC 25922 (CO-ADD:GN_001); MIC in CAMBH media using NBS plates, by OD(600)
Results with a measured potency or affinity are listed apart.
Readout: Inhibition (%)
Give bare numbers, in %.

INSERT INTO results (cpd_smiles, readout, output_unit, assay_value) VALUES
  ('CCCCc1ccc(NC(=O)Cn2nc3c(N4CCN(c5ccccc5C)CC4)nccn3c2=O)cc1', 'Inhibition', '%', -13.2),
  ('O=C(CSc1nnc2c(=O)n(-c3ccc(F)cc3)ccn12)N1CCN(c2ccc(F)cc2)CC1', 'Inhibition', '%', -2.88),
  ('Cc1ccc(C)c(CSc2nnc3c(=O)n(-c4ccc(Br)cc4)ccn23)c1', 'Inhibition', '%', -0.75),
  ('Cc1ccc(NC(=O)Cn2nc3c(SCc4ccccc4)nccn3c2=O)cc1C', 'Inhibition', '%', -10.79),
  ('COc1cccc(-n2ccn3c(SCC(=O)c4ccc(F)cc4)nnc3c2=O)c1', 'Inhibition', '%', -3.39);

Hey, quick one: what's Inhibition for each of these?
1. N#Cc1cccc(NC(=O)Cn2nc3c4cc(-c5ccc(Cl)cc5)nn4ccn3c2=O)c1
2. Cc1cc(Br)ccc1NC(=O)Cn1nc2c(Sc3ccccc3)nccn2c1=O
3. C=Cc1ccc(CN(c2ccc(C(C)C)cc2)S(=O)(=O)c2cccn3c(C)nnc23)cc1
4. COc1ccc(-n2ccn3c(-c4cccc([N+](=O)[O-])c4)nnc3c2=O)cc1
5. COC(=O)c1ccccc1NC(=O)Cn1nc2c3sc(N4CCCC4)nc3ncn2c1=O

Reply:
1: -5.31; 2: -5.92; 3: 1.96; 4: -6.72; 5: -6.93

* * *

test system: Staphylococcus aureus; conditions: Concentration 32 ug.mL-1;; ASSAY_TEST Inhibition of Bacterial Growth; detection method Absorption (OD600); MEDIA CAMHB; plate type 384well; NBS; CORNING #3640; time 18 hr
Measured potencies and affinities stand elsewhere.
Readout: Inhibition (%)
Answers are plain numbers, in %.

INSERT INTO measurements (cpd_smiles, output_unit, assay_value) VALUES
  ('COc1ccc(NC(=O)Cn2nc3c4cc(-c5ccc(C)c(C)c5)nn4ccn3c2=O)cc1Cl', '%', -7.37);

Give Inhibition for each listed item.
1. COc1cccc(NC(=O)Cn2nc3ccc(-c4ccc(C)c(C)c4)nn3c2=O)c1
2. CC(C)CCNC(=O)CSc1nnc2c(=O)n(-c3ccc(F)cc3)ccn12
3. CCc1ccc(N(Cc2ccccc2)S(=O)(=O)c2cccn3c(C)nnc23)cc1
4. COC(=O)c1ccc(NC(=O)Cn2nc3nc(N4CCCCCC4)ccn3c2=O)cc1

Reply:
1. -14.65
2. 8.18
3. 11.03
4. 7.17

* * *

system: Escherichia coli; conditions: Concentration 32 ug.mL-1;; ASSAY_TEST Inhibition of Bacterial Growth; detection method Absorption (OD600); MEDIA CAMHB; plate type 384well; NBS; CORNING #3640; time 18 hr
Measured potencies and affinities stand elsewhere.
Readout: Inhibition

Some solved cases for reference:
INSERT INTO assay_data (cpd_smiles, target_or_system, readout, assay_value) VALUES
  ('COCCCNC(=O)CSc1nnc2c(=O)n(Cc3ccccc3)ccn12', 'Escherichia coli', 'Inhibition', '-1.7%'),
  ('CSc1cccc(NC(=O)Cn2nc3c(SC4CCCCC4)nccn3c2=O)c1', 'Escherichia coli', 'Inhibition', '-5.86%'),
  ('Cc1ccc(Cn2c(=O)c3ccccc3n3c(=O)n(CC#N)nc23)cc1', 'Escherichia coli', 'Inhibition', '-7.28%'),
  ('Cc1cc(C)c(NC(=O)Cn2nc3c(Sc4ccccc4)nccn3c2=O)c(C)c1', 'Escherichia coli', 'Inhibition', '-7.73%'),
  ('COc1ccc(OC)c(NC(=O)Cn2nc3c4c5c(sc4ncn3c2=O)CCCC5)c1', 'Escherichia coli', 'Inhibition', '-1.54%'),
  ('Cc1ccc(-c2ccc3nnc(CCC(=O)NCc4ccc(C(F)(F)F)cc4)n3n2)cc1C', 'Escherichia coli', 'Inhibition', '1.8%'),
  ('N#Cc1cccc(Cn2nc3ccc(S(=O)(=O)N4CCCCCC4)cn3c2=O)c1', 'Escherichia coli', 'Inhibition', '-2.41%'),
  ('CCCc1nnc2c(=O)n(CC(=O)Nc3ccc4c(c3)OCCO4)c3ccccc3n12', 'Escherichia coli', 'Inhibition', '-7.37%'),
  ('O=C(CSc1nnc2c(=O)n(-c3ccc(Br)cc3)ccn12)c1c[nH]c2ccccc12', 'Escherichia coli', 'Inhibition', '-2.65%');

Continue with the molecule presented below.
Value of measured Inhibition for the entry COc1ccc(CNC(=O)Cn2nc3c(SCc4ccc(Cl)cc4)nccn3c2=O)cc1 : -12.31%

* * *

tested on: Staphylococcus aureus; conditions: Concentration 32 ug.mL-1;; ASSAY_TEST Inhibition of Bacterial Growth; detection method Absorption (OD600); MEDIA CAMHB; plate type 384well; NBS; CORNING #3640; time 18 hr
Potency and affinity values are given separately.
Classes based on Inhibition: low (below 6%), medium (6% to below 8%), high (8% or more)

INSERT INTO assay_data (cpd_smiles, assigned_category) VALUES
  ('Cc1cc(C)cc(NC(=O)Cn2nc3c4cc(-c5ccc(C)c(C)c5)nn4ccn3c2=O)c1', 'low'),
  ('COc1ccc(NC(=O)Cn2nc3ccc(Sc4ccccc4)nn3c2=O)cc1', 'medium'),
  ('COc1ccccc1-n1ccn2c(SCC(=O)NCc3ccc(Cl)cc3)nnc2c1=O', 'high'),
  ('O=C(CSc1nnc2c(=O)n(-c3ccc(Br)cc3)ccn12)c1c[nH]c2ccccc12', 'high'),
  ('COc1cccc(CN(c2ccccc2)S(=O)(=O)c2ccc3nncn3c2)c1', 'medium');

Ask: Class label required: C=Cc1ccc(CSc2nnc3c(=O)n(-c4ccc(Br)cc4)ccn23)cc1
Reply: low

Ask: Tag the class for COc1ccccc1Cn1c(=O)c2sccc2n2c(=O)n(Cc3ccccc3)nc12
Reply: low

Ask: // return the class label for Cc1ccc(NC(=O)Cn2nc3ccc(-c4ccc(Cl)cc4)nn3c2=O)cc1
Reply: low

Ask: Hello team, could you let me know which band the following compound falls into: Cn1c(=O)c2sccc2n2c(=O)n(Cc3cccc(Br)c3)nc12
Reply: high

* * *

test system: Staphylococcus aureus; details: Concentration 32 ug.mL-1;; ASSAY_TEST Inhibition of Bacterial Growth; detection method Absorption (OD600); MEDIA CAMHB; plate type 384well; NBS; CORNING #3640; time 18 hr
Results with a measured potency or affinity are listed apart.
Readout: Inhibition (%)
Numbers only, in %.

Here is how some molecules turned out for Inhibition.
INSERT INTO assay_data (cpd_smiles, output_unit, assay_value) VALUES
  ('COC(=O)c1ccc(NC(=O)Cn2nc3c(Oc4ccccc4C)nccn3c2=O)cc1', '%', -13.52),
  ('Cc1[nH]c2ccccc2c1C(=O)CSc1nnc2c(=O)n(-c3ccccc3)ccn12', '%', 16.56);

Record Inhibition per entry; entries follow.
1. CCc1cccc(NC(=O)Cn2nc3ccc(SC(C)(C)C)nn3c2=O)c1
2. O=C(Cn1nc2c(SC3CCCCC3)nccn2c1=O)N1CCN(c2ccc(F)cc2)CC1
3. COc1ccc(NC(=O)Cn2nc3c(Sc4ccccc4)nccn3c2=O)cc1OC
4. Cc1cc(C)c(NC(=O)Cn2nc3c(N4CCN(c5ccccc5)CC4)nccn3c2=O)c(C)c1

Reply:
[9.57, 8.31, -8.9, 13.62]

Parameters: items (list). Returns: Inhibition for each item.
1. Cc1ccc(Nc2cc(C)n3c(=O)n(Cc4cc(=O)n5ccccc5n4)nc3n2)cc1F
2. CCOc1ccc(C(=O)CSc2nnc3c(=O)n(-c4ccc(OCC)cc4)ccn23)cc1
3. CSc1cccc(NC(=O)Cn2nc3c(N4CCCC4)nccn3c2=O)c1
4. COc1cccc(-n2ccn3c(SCc4cccc(C(F)(F)F)c4)nnc3c2=O)c1

Reply:
[9.94, 18.9, -20.72, 7.34]
